Target: T1, CD55 SCR1–4 domains (35–285), His-tagged (human, UniProt P08174 35-285)
T1 construct: CD55 (complement decay-accelerating factor), human, UniProt P08174, SCR1–4 domains, residues 35–285; Vector pLEXm with N-terminal signal peptide; codon-optimized gene; In the crystal and SAXS rows it stood as the C-terminal part of the chimera m9; also called decay-accelerating factor; not shown: His6, C-terminal, kept
T1 sequence (looked up): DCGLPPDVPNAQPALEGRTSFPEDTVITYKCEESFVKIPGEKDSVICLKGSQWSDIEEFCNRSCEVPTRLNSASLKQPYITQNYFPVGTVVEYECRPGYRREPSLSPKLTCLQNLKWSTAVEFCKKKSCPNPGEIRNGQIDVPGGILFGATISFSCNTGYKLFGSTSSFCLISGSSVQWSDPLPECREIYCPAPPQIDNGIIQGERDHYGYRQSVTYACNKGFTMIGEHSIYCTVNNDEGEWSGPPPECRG
Assay: SPR; Biacore T200; His-tagged CD55 immobilized on nickel coated NTA chip; CD97 (WT, mutants) or EMR2 without His-tag injected at 50 μl/min for 2 min; 20 mM Tris, pH 7.5, 200 mM NaCl, 2 mM CaCl2, 0.05% Tween 20
Conditions: both partners purified
PARAMETER: pKd
Please express pKd as -log10 of the molar concentration.

Prompt: Indicate its recorded pKd; the binder in question is CD97 EGF_(1,2,5) fragment D63L, without His-tag (domain or fragment, human, UniProt P48960-2 21-165, looked up, CD97, human, EGF_(1,2,5) isoform fragment, residues 21–165, with D63L; Made by overlapping PCR, cloned to the same vector as m3; not shown: His6, C-terminal, cleaved) QDSRGCARWCPQNSSCVNATACRCNPGFSSFSEIITTPTETCLDINECATPSKVSCGKFSDCWNTEGSYDCVCSPGYEPVSGAKTFKNESENTCQDVDECSSGQHQCDSSTVCFNTVGSYSCRCRPGWKPRHGIPNNQKDTVCED
Completion: 4.07

Prompt: State, in one line, measured pKd of CD97 EGF_(1,2,5) fragment V137A, without His-tag (domain or fragment, human, UniProt P48960-2 21-165, looked up, CD97, human, EGF_(1,2,5) isoform fragment, residues 21–165, with V137A (in EGF5); Made by overlapping PCR, cloned to the same vector as m3; also called V137A mutant; not shown: His6, C-terminal, cleaved) QDSRGCARWCPQNSSCVNATACRCNPGFSSFSEIITTPTETCDDINECATPSKVSCGKFSDCWNTEGSYDCVCSPGYEPVSGAKTFKNESENTCQDVDECSSGQHQCDSSTVCFNTAGSYSCRCRPGWKPRHGIPNNQKDTVCED
Completion: 4.60

Prompt: Give pKd for the following binder: CD97 EGF_(1,2,5) fragment E86A, without His-tag (domain or fragment, human, UniProt P48960-2 21-165, looked up, CD97, human, EGF_(1,2,5) isoform fragment, residues 21–165, with E86A; Made by overlapping PCR, cloned to the same vector as m3; not shown: His6, C-terminal, cleaved) QDSRGCARWCPQNSSCVNATACRCNPGFSSFSEIITTPTETCDDINECATPSKVSCGKFSDCWNTAGSYDCVCSPGYEPVSGAKTFKNESENTCQDVDECSSGQHQCDSSTVCFNTVGSYSCRCRPGWKPRHGIPNNQKDTVCED
Completion: 4.76

Prompt: Supply measured pKd of CD97 EGF_(1,2,5) fragment D81A, without His-tag (domain or fragment, human, UniProt P48960-2 21-165, looked up, CD97, human, EGF_(1,2,5) isoform fragment, residues 21–165, with D81A; Made by overlapping PCR, cloned to the same vector as m3; not shown: His6, C-terminal, cleaved) QDSRGCARWCPQNSSCVNATACRCNPGFSSFSEIITTPTETCDDINECATPSKVSCGKFSACWNTEGSYDCVCSPGYEPVSGAKTFKNESENTCQDVDECSSGQHQCDSSTVCFNTVGSYSCRCRPGWKPRHGIPNNQKDTVCED in your reply.
Completion: 4.18
